These data points were gathered from patent US20250084172A1.

# ASSAYED_TARGET: T1, human soluble ULBP2 (hULBP2) (human, UniProt Q9BZM5 26-216)
# T1 construct: also called sULBP2
# T1 sequence: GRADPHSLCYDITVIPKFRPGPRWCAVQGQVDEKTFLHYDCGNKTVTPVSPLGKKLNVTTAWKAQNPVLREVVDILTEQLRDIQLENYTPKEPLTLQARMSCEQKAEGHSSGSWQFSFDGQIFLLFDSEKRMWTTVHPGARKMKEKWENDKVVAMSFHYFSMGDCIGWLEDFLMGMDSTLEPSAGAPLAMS
# EXPERIMENTAL_DETAILS: SPR (BIACORE 8K, 37 C); antibody captured on Protein A, soluble ULBP injected;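 also: ligand injected as threefold dilution series in HBS-P (highest 10 or 50 nM), reference-cell and buffer-subtracted sensorgrams fitted with a 1:1 Langmuir model for on and off rates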
MEASUREMENT_NAME: Kd (nM)
# number only, unit nM dropped from output

# Kd of humanized 7B3 (h7B3), Fc version not stated (antibody, V domains shown, Recombinant humanized antibody, hIgG1 backbone with kappa light chain; also called hu7B3; PUR3922) VH: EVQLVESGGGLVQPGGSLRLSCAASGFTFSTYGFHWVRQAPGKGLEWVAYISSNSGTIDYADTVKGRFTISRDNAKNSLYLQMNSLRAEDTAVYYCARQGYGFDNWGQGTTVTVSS VL: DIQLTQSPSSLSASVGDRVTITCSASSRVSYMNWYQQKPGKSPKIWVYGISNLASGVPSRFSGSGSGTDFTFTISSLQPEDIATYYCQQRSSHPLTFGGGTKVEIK = 0.673
